Below is a list of entries, each paired with its recorded kinase still bound, per cent of control value.
targetUnderTest: MAPK7 (human)
protocolText: KINOMEscan competition binding
experimentalParameters: compound 10.0 µM
Give the value, in units of %, as a plain number.

Consider the following illustrative entries.
{"columns": ["smilesStr", "kinase still bound, per cent of control [%]"],
 "data": [
  ["O=C1NC(=O)/C(=C/c2ccc3nccc(-c4ccncc4)c3c2)S1", 59],
  ["COc1cc(C(=O)N2CCC(N3CCN(C)CC3)CC2)ccc1Nc1ncc2c(n1)N(C)c1ccccc1C(=O)N2C", 0.05],
  ["O=C(Nc1cccc(Nc2ncc(Br)c(NCCc3cnc[nH]3)n2)c1)N1CCCC1", 62]
]}

Input line: Assign kinase still bound, per cent of control to the following record: COc1cc2ncnc(-n3nc(-c4ccccn4)nc3N)c2cc1OC
Output line: 83

Input line: Assign kinase still bound, per cent of control to the following record: N#CCNC(=O)c1ccc(-c2ccnc(Nc3ccc(N4CCOCC4)cc3)n2)cc1
Output line: 48

Input line: Assign kinase still bound, per cent of control to the following record: CCN1CCN(C(=O)Cc2ccc(Nc3ncc(F)c(Nc4ccc(C(=O)Nc5ccccc5Cl)cc4)n3)cc2)CC1
Output line: 100

Input line: Assign kinase still bound, per cent of control to the following record: CCN(CC)CCCCNc1ncc2c(n1)N(C)C(=O)N(c1c(Cl)c(OC)cc(OC)c1Cl)C2
Output line: 4.1

Input line: Assign kinase still bound, per cent of control to the following record: CNC(=O)c1cc(Oc2ccc(NC(=O)Nc3ccc(Cl)c(C(F)(F)F)c3)cc2)ccn1
Output line: 85

Input line: Assign kinase still bound, per cent of control to the following record: CNC(=O)c1ccc(Nc2cc(Nc3ccccc3S(=O)(=O)C(C)C)c3cc[nH]c3n2)nc1
Output line: 100

Input line: Assign kinase still bound, per cent of control to the following record: O=c1cc(N2CCOCC2)oc2c(-c3cccc4c3sc3ccccc34)cccc12
Output line: 100
